For each entry below, report its residual activity value.
target: TXK (human) (UniProt P42681); assay: radiometric filter-binding kinase assay, Kinase HotSpot; settings: compound 0.5 µM; ATP 10 µM
Sequence (P42681 whole entry, looked up): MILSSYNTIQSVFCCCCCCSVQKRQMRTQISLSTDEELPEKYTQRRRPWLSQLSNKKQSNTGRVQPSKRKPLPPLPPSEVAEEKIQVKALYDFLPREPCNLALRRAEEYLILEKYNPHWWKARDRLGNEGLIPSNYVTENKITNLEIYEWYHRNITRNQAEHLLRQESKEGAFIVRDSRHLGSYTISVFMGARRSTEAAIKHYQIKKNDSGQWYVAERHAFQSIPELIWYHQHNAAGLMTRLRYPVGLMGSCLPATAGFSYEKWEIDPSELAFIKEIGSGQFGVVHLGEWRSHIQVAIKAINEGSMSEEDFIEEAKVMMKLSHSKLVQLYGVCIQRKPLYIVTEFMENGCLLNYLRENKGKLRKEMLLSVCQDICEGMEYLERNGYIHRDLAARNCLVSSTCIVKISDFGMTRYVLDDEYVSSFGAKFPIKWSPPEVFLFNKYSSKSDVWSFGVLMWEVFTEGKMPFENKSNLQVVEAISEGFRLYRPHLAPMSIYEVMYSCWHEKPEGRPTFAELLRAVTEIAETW
Answers are plain numbers, in %.

Use the examples below as a reference point.
O=C1NC(=O)c2c1c1c3ccccc3n3c1c1c2c2ccccc2n1C1CCC3O1 : 22.7
COc1cc2ncnc(Nc3cccc(Cl)c3)c2cc1OC : 75
O=C1Nc2ccc(Cl)cc2/C1=C/c1cc(Cl)c(O)c(Cl)c1 : 86.6
CCCC(=O)Oc1ccc2[nH]c(C(=O)c3cc4ccccc4[nH]3)cc2c1 : 99.1

Kindly consider the entry below.
[ask] Return reported residual activity; argument: Cc1ccc(NC2=CC(=O)c3sc(C)nc3C2=O)cc1
[reply] 98.8

###

Give residual activity for every item shown.
molecular target: AURKA (human) (UniProt O14965); test: radiometric filter-binding kinase assay, Kinase HotSpot; conditions: compound 0.5 µM; ATP 10 µM
Sequence (O14965 whole entry, looked up): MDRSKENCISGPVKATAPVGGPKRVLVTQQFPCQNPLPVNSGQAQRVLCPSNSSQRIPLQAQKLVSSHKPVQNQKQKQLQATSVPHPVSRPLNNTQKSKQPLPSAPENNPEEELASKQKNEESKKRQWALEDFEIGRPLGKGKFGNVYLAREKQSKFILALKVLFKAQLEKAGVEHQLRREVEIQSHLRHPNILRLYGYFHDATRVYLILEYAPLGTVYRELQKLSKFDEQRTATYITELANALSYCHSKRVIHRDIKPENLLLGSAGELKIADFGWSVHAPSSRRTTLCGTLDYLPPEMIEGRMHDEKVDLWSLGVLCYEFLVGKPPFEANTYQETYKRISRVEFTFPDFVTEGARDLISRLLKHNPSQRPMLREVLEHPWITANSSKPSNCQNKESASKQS
Give bare numbers, in %.

Answered examples (5):
N#CC(C#N)=C(N)/C(C#N)=C/c1ccc(O)cc1 : 89.6
O=C1NC(=O)/C(=C/c2ccc3c(c2)OC(F)(F)O3)S1 : 92.4
Nc1cccc(-c2cc3c(Oc4cccc(O)c4)ncnc3[nH]2)c1 : 78.2
CC(C)N(CCC(=O)c1ccc2ccccc2c1)Cc1ccccc1 : 104
CNC(=O)c1cc(Oc2ccc(NC(=O)Nc3ccc(Cl)c(C(F)(F)F)c3)cc2)ccn1 : 103

State recorded residual activity for all listed molecules.
1. Cc1ccc(NC2=CC(=O)c3sc(C)nc3C2=O)cc1
2. CNc1cc2c(Nc3cccc(Br)c3)ncnc2cn1
3. O=C1NC(=O)C(c2cn(CCCn3ccnc3)c3ccccc23)=C1Nc1ccccc1
4. Nc1ncnc2[nH]nc(Nc3ccc(F)cc3)c12
5. COc1ccc2c(c[n+](C)c3c4cc5c(cc4ccc23)OCO5)c1OC

[reply]
1. 110
2. 85.1
3. 78.8
4. 92.3
5. 107

Parameter requested: residual activity. Apply to each item below.
1. CCN(CC)C(=O)c1ccc(Nc2nc(OCC3CCCCC3)c3nc[nH]c3n2)cc1
2. CCN(CC)CCNC(=O)c1c(C)[nH]c(/C=C2\C(=O)Nc3ccc(F)cc32)c1C
3. CCOC(=O)c1c(C)[nH]c(/C=C2\C(=O)Nc3ccccc32)c1C
4. CC#CC(=O)Nc1cc2c(Nc3ccc(F)c(Cl)c3)ncnc2cn1
5. CC[n+]1c(/C=C/N(C)c2ccccc2)n(-c2ccccc2)c2ccc(-c3nc4ccccc4s3)cc21
6. O=S(=O)(c1cccc2cnccc12)N1CCCNCC1

[reply]
1. 3.03
2. 59.7
3. 90.4
4. 96.5
5. 88.1
6. 101

###

target: TTK (human); assay: radiometric filter-binding kinase assay, Kinase HotSpot; conditions: compound 0.5 µM; ATP 10 µM
observable: residual activity (%)
One number for each entry, in %.

These recorded examples may help you get a feel for the data.
CNC(=O)c1cc(Oc2ccc(NC(=O)Nc3ccc(Cl)c(C(F)(F)F)c3)cc2)ccn1 : 104
CCCC(=O)Oc1ccc2[nH]c(C(=O)c3cc4ccccc4[nH]3)cc2c1 : 85.7
Cc1[nH]c(/C=C2\C(=O)Nc3ccc(S(=O)(=O)N(C)c4cccc(Cl)c4)cc32)c(C)c1C(=O)N1CCN(C)CC1 : 90.7
O=C1NC(=O)/C(=C/c2ccc3c(c2)OC(F)(F)O3)S1 : 102
Nc1ccc2ncnc(NCCc3ccc(Oc4ccccc4)cc3)c2c1 : 97.6
CCN(CC)CCNC(=O)c1c(C)[nH]c(/C=C2\C(=O)Nc3ccc(F)cc32)c1C : 68
CC[n+]1c(/C=C/N(C)c2ccccc2)n(-c2ccccc2)c2ccc(-c3nc4ccccc4s3)cc21 : 96.6
O=S(=O)(c1cccc2cnccc12)N1CCCNCC1 : 99.1
O=c1cc(N2CCOCC2)oc2c1ccc1ccccc12 : 103
CCOC(=O)c1c(C)[nH]c(/C=C2\C(=O)Nc3ccccc32)c1C : 96.6

Would you be so kind as to report residual activity for each listed record?
1. Nc1cccc(-c2cc3c(Oc4cccc(O)c4)ncnc3[nH]2)c1
2. c1ccc(-c2n[nH]cc2-c2ccnc3ccccc23)nc1
3. Cc1ccc(Nc2nccc(N(C)c3ccc4c(C)n(C)nc4c3)n2)cc1S(N)(=O)=O
4. Cc1ccc(S(=O)(=O)/C=C/C#N)cc1
5. CNc1cc2c(Nc3cccc(Br)c3)ncnc2cn1
6. CC(C)N(CCC(=O)c1ccc2ccccc2c1)Cc1ccccc1
7. CCC(=O)Nc1ccc2ncnc(Nc3cccc(Br)c3)c2c1

[reply]
1. 104
2. 97.4
3. 73.4
4. 107
5. 100
6. 96
7. 113

Take each entry in turn and give its residual activity.
1. O=C1Nc2ccc(Cl)cc2/C1=C/c1cc(Cl)c(O)c(Cl)c1
2. CCN(CC)CCNC(=O)c1c(C)[nH]c(/C=C2\C(=O)Nc3ccc(Cl)cc32)c1C
3. CC(=O)c1ccc(N2CCOCC2)cc1O
4. COc1ccc(COc2ccc(Cc3cnc(N)nc3N)cc2OC)cc1

[reply]
84.4
59.8
103
105

Each recorded value in this set is attributed to the kinase profiling compilation of Christmann-Franck et al. (2016).
